Listed here: items and their measured Immunogenicity: response ratio of each peptide in five donors.
Test system: CD3+CD8+ T cells from HLA-A2+ healthy donors
Test: ICS assay for immunogenicity: IFN-γ production of CD3+CD8+ T cells from peptide-stimulated PBMCs
Assay type: cell-based, human
Conditions: percentages of IFN-γ+-secreting CD8+ T cells higher than negative control, PBMCs stimulated 10 μg/mL once-weekly 3 weeks

Looking up LMDVQIPTA [CT-X candidate nonamer predicted by POTN, synthesized] , I found its Immunogenicity: response ratio of each peptide in five donors recorded as 5/5

Looking up TLDEKVAEL [CT-X candidate nonamer predicted by POTN, synthesized] , I found its Immunogenicity: response ratio of each peptide in five donors recorded as 5/5

***
Looking up KLSSIIPSA [CT-X candidate nonamer predicted by POTN, synthesized] , I found its Immunogenicity: response ratio of each peptide in five donors recorded as 1/5

Looking up TLDQVLDEV [CT-X candidate nonamer predicted by POTN, synthesized] , I found its Immunogenicity: response ratio of each peptide in five donors recorded as 5/5

Looking up ALSTVLPGL [CT-X candidate nonamer predicted by POTN, synthesized] , I found its Immunogenicity: response ratio of each peptide in five donors recorded as 2/5

###

Test system: CD3+CD8+ T cells from HLA-A2+ healthy donors
Test: ICS assay for immunogenicity: IFN-γ production of CD3+CD8+ T cells from peptide-stimulated PBMCs
Assay type: cell-based, human
Conditions: percentages of IFN-γ+-secreting CD8+ T cells higher than negative control, PBMCs stimulated 10 μg/mL once-weekly 3 weeks
measured-quantity: Immunogenicity: response ratio of each peptide in five donors

Looking up FIDKLVESV [CT-X candidate nonamer predicted by POTN, synthesized] , I found its Immunogenicity: response ratio of each peptide in five donors recorded as 5/5

Looking up ALDEKVAEL [CT-X candidate nonamer predicted by POTN, synthesized] , I found its Immunogenicity: response ratio of each peptide in five donors recorded as 4/5

Looking up YLATADMPA [CT-X candidate nonamer predicted by POTN, synthesized] , I found its Immunogenicity: response ratio of each peptide in five donors recorded as 3/5

Looking up KMAGELIKI [CT-X candidate nonamer predicted by POTN, synthesized] , I found its Immunogenicity: response ratio of each peptide in five donors recorded as 4/5

Looking up SIDDLSFYV [CT-X candidate nonamer predicted by POTN, synthesized] , I found its Immunogenicity: response ratio of each peptide in five donors recorded as 4/5

###

Biological target: HLA-A2 molecule (Homo sapiens, UniProt P04439, D140Y/D185E/D98H/E176V/E277Q/G131W/G231S/I119V/I121R/I166T/I218V/L300P/L318F/N151K/N90K/P208A/P217A/Q86G/Q94H/R138H/R169H/T345S)
Construct: The T2 cell line (HLA-A2) was supplied by Professor Yuzhang Wu; endogenous in cells; host or cells: T2 cell line (HLA-A2); exogenous human β2-microglobulin from Merck
Test: T2 binding assay (fluorescence index, FI)
Settings: T2 cells, peptide 50 μg/mL, human β2-microglobulin 3 µg/mL, 37°C 18 h, anti-HLA-A2 BB7.2 PE-cy7, flow cytometry; class by FI
measured-quantity: Binding

Looking up KVADLIHFL [CT-X candidate nonamer predicted by POTN, synthesized] , I found its Binding recorded as + (FI ≥ 0.5 to < 1.5)

Looking up FLAMLKNTV [CT-X candidate nonamer predicted by POTN, synthesized] , I found its Binding recorded as + (FI ≥ 0.5 to < 1.5)

Looking up AMASASPSV [CT-X candidate nonamer predicted by POTN, synthesized] , I found its Binding recorded as ++ (FI ≥ 1.5)

Looking up YLATADMPA [CT-X candidate nonamer predicted by POTN, synthesized] , I found its Binding recorded as ++ (FI ≥ 1.5)

Origin of values: paper PMC7579403
